# Experimental System: SARS-CoV-2 3CLpro (Severe acute respiratory syndrome coronavirus 2, UniProt P0DTD1)
# Assay Name: biochemical
# Assay type: biochemical
# Condition Notes: 4 h, read-out: Replicate_1 (LOPAC screen with protease)
Structures can show the parent of a compound that is named as a salt.
Property: inhibition at 5 µM; scope: individual molecules
Property Measured: inhibition at 5 µM (%)

molecule="Oc1cc2c(cc1O)[C@H]1c3ccccc3CN[C@@H]1CC2 (racemic) [Dihydrexidine hydrochloride]" experimental_system="SARS-CoV-2 3CLpro (Severe acute respiratory syndrome coronavirus 2, UniProt P0DTD1)" numeric_result=96.2
molecule="O=C(O)C1=CC(=C(c2ccc(O)c(C(=O)O)c2)c2ccc(O)c(C(=O)O)c2)C=CC1=O [Aurintricarboxylic acid, reference compound]" experimental_system="SARS-CoV-2 3CLpro (Severe acute respiratory syndrome coronavirus 2, UniProt P0DTD1)" numeric_result=31.5
molecule="NCCc1ccc(O)c(O)c1 [Dopamine hydrochloride]" experimental_system="SARS-CoV-2 3CLpro (Severe acute respiratory syndrome coronavirus 2, UniProt P0DTD1)" numeric_result=16.2
molecule="Oc1cc2c(cc1O)CN(C(=S)NCCc1ccc(Cl)cc1)CCC2 [Capsazepine, reference compound]" experimental_system="SARS-CoV-2 3CLpro (Severe acute respiratory syndrome coronavirus 2, UniProt P0DTD1)" numeric_result=91.9
molecule="CC(C)COCC(CN(Cc1ccccc1)c1ccccc1)N1CCCC1 (centres unmarked) [Bepridil hydrochloride]" experimental_system="SARS-CoV-2 3CLpro (Severe acute respiratory syndrome coronavirus 2, UniProt P0DTD1)" numeric_result=8.81
molecule="N#CC(C#N)=C(N)/C(C#N)=C/c1cc(O)c(O)c(O)c1 [Tyrphostin 51, reference compound]" experimental_system="SARS-CoV-2 3CLpro (Severe acute respiratory syndrome coronavirus 2, UniProt P0DTD1)" numeric_result=28
molecule="O=C1O/C(=C/Br)CCC1c1cccc2ccccc12 (centres unmarked) [Bromoenol lactone, reference compound]" experimental_system="SARS-CoV-2 3CLpro (Severe acute respiratory syndrome coronavirus 2, UniProt P0DTD1)" numeric_result=100
molecule="Cc1cnc(C(=O)NCCc2ccc(S(=O)(=O)NC(=O)NC3CCCCC3)cc2)cn1 [Glipizide]" experimental_system="SARS-CoV-2 3CLpro (Severe acute respiratory syndrome coronavirus 2, UniProt P0DTD1)" numeric_result=10.3
